# Test system: CEM cells HIV-1 protection, formazan growth assay
# Experimental Details: NCI AIDS Antiviral Assay
# Experimental Conditions: measured here: growth of uninfected CEM cells
Where a SMILES comes first, the peptide text is derived from it. [ ]: non-standard residue; d: D form. The star is where a group is joined. ξ: configuration not given here. ξD = NC(CC(=O)O)C(=O)O; Ac3c = NC1(C(=O)O)CC1; Boc = CC(C)(C)OC(=O)*; OBn = c1ccc(CO*)cc1

Molecule: NC(=O)c1[nH]nc(C2OC(CO)C(O)C2O)c1O (stereo unspecified)
Qualifier Operator: =
IC50 [µM]: 0.309

Molecule: Cc1[nH]nc2c1NC(=O)OC(C)C2 (stereo unspecified)
Qualifier Operator: =
IC50 [µM]: 490

Molecule: CCN(CC)P1CCP(c2ccccc2)CC1 (stereo unspecified)
Qualifier Operator: >
IC50 [µM]: 37.2

Molecule: Cc1cc2c(cc1C)NC(=O)CC(=O)N2
Qualifier Operator: >
IC50 [µM]: 200

Molecule: O=c1[nH]nc(-c2ccccc2)n1/N=C/c1ccccc1O
Qualifier Operator: =
IC50 [µM]: 115

Molecule: NC(=S)N/N=c1\cc(C(=O)Nc2ccc([N+](=O)[O-])cc2[N+](=O)[O-])oc2ccccc12
Qualifier Operator: >
IC50 [µM]: 60.3

Molecule: CC(C)(C)[Si](C)(C)OCC1OC(n2ccc(=O)[nH]c2=O)C(C/C=[N+](/[O-])CC2OC(n3ccc(=O)[nH]c3=O)C(O[Si](C)(C)C(C)(C)C)C2O[Si](C)(C)C(C)(C)C)C1O[Si](C)(C)C(C)(C)C (stereo unspecified)
Qualifier Operator: =
IC50 [µM]: 89.1

Molecule: CC1CCCC(C(=O)CC2CC(=O)NC(=O)C2)C1=O (stereo unspecified)
Qualifier Operator: >
IC50 [µM]: 200

Molecule: S=C(NCc1ccccc1)N/N=C/c1ccccn1
Qualifier Operator: =
IC50 [µM]: 0.141

Molecule: CN(C)C(=O)N(CCC#N)CCN(C(=O)N(C)C)c1ccccc1
Qualifier Operator: >
IC50 [µM]: 200

Molecule: CN(C)c1ccc(-c2ccc(N(C)C)c3n[se]nc23)c2n[se]nc12
Qualifier Operator: >
IC50 [µM]: 200

Molecule: COc1cccc(Nc2nc(N)nc(N)c2N)c1
Qualifier Operator: =
IC50 [µM]: 26.3

Molecule: COC(=O)[C@@]12C(=O)C(C)C(=O)[C@]1(C)C(C)=C[C@H]1[C@]3(C=O)CC[C@H](OC(C)=O)C(C)(C)[C@H]3CC[C@@]12C (stereo partly specified)
Qualifier Operator: =
IC50 [µM]: 97.7

Molecule: O=C(CCCN1CC=C(n2c(=O)[nH]c3ccccc32)CC1)c1cccs1
Qualifier Operator: =
IC50 [µM]: 120

Molecule: O=C(c1ccccc1)[C@@]12COc3ccccc3[C@@H]1ON=C2c1ccccc1
Qualifier Operator: >
IC50 [µM]: 10.7

Molecule: CCOC(=O)C(C)(C)Oc1ccc(Cl)cc1
Qualifier Operator: >
IC50 [µM]: 200

Molecule: Cc1ccc(C)c(COCCOCn2ccc(N)nc2=O)c1
Qualifier Operator: >
IC50 [µM]: 200

Molecule: N#Cc1cc2c(n(C3OC(CO)C(O)C(O)C3O)c1=S)CCCC2 (stereo unspecified)
Qualifier Operator: >
IC50 [µM]: 200

Molecule: CCCn1c2ccccc2c2ccc3c(c21)C(=O)C=CC3=O
Qualifier Operator: =
IC50 [µM]: 1.17

Molecule: O=C(Nc1ccn(C2CC(O)C(COC(c3ccccc3)(c3ccccc3)c3ccccc3)O2)c(=O)n1)c1ccccc1 (stereo unspecified)
Qualifier Operator: =
IC50 [µM]: 7.41

Molecule: CCOC(=O)c1nc(SC)n(C)c1C(=O)OCC
Qualifier Operator: >
IC50 [µM]: 200

Molecule: COC(=O)Oc1nn(C(=O)OC)c(=O)c2ccccc12 (tested in a mixture with another compound)
Qualifier Operator: >
IC50 [µM]: 200

Molecule: O=C(O)c1ccccc1CC1Cc2ccc3c(c2C1=O)CCC3 (stereo unspecified)
Qualifier Operator: =
IC50 [µM]: 112

Molecule: CC(=O)Nc1ccc(-c2nnc(SCC(=O)Nc3ccc([N+](=O)[O-])cc3)o2)cc1
Qualifier Operator: =
IC50 [µM]: 7.94

Molecule: CC1(C)C2CC(O)C1(C)CC2=O (stereo unspecified)
Qualifier Operator: =
IC50 [µM]: 170

Molecule: COc1ccc2[nH]c(=O)c(C(C)=O)c(O)c2c1
Qualifier Operator: >
IC50 [µM]: 200

Molecule: CC1(C)CCCC(C)(C)N1[P-]C(=O)[P-]N1C(C)(C)CCCC1(C)C.[C-]#[O+].[C-]#[O+].[C-]#[O+].[C-]#[O+].[C-]#[O+].[C-]#[O+].[Fe].[Fe] (stereo unspecified)
Qualifier Operator: >
IC50 [µM]: 2.24

Molecule: NNC(=S)N/N=C(/C(=O)Nc1ccc(Cl)c(Cl)c1)C(C1OC(=O)c2ccccc21)[N+](=O)[O-] (stereo unspecified)
Qualifier Operator: =
IC50 [µM]: 257

Molecule: CC1=CC(=O)/C(=C/n2c(=S)[nH]c3ccc([N+](=O)[O-])cc32)C(=O)O1
Qualifier Operator: =
IC50 [µM]: 178

Molecule: COC(=O)C1(NC(=O)C(CC(=O)OCc2ccccc2)NC(=O)OC(C)(C)C)CC1 (stereo unspecified) (Boc-[ξD](OBn)-[Ac3c]-OMe)
Qualifier Operator: >
IC50 [µM]: 200

Molecule: CC(C)(C)OC(=O)N1CCc2c(n(C/C=C/c3ccccc3)[nH]c2=O)C1
Qualifier Operator: =
IC50 [µM]: 19.1

Molecule: CC(C)(C)C[PH+](CC[PH+](CC(C)(C)C)CC(C)(C)C)CC(C)(C)C.[C-]#[O+].[C-]#[O+].[C-]#[O+].[C-]#[O+].[Mo]
Qualifier Operator: >
IC50 [µM]: 3.47

Molecule: NCCCN(CCCCN(CCCN)Cc1ccccc1)Cc1ccccc1
Qualifier Operator: =
IC50 [µM]: 70.8

Molecule: NNC(=O)c1cc(=O)[nH][nH]1
Qualifier Operator: >
IC50 [µM]: 200

Molecule: COC(=O)c1ccc(C)cc1CC1Cc2cccc(C)c2C1=O (stereo unspecified)
Qualifier Operator: =
IC50 [µM]: 5.37

Molecule: N#CC1C(=O)N(c2ccccc2)NC12OC(=O)c1ccncc12 (stereo unspecified)
Qualifier Operator: >
IC50 [µM]: 200

Molecule: COc1ccc(C=C(C(=O)O)C(=O)O)cc1
Qualifier Operator: >
IC50 [µM]: 1120

Molecule: CCOC(=O)C(=O)Nc1ccccc1C(F)(F)F
Qualifier Operator: >
IC50 [µM]: 363

Molecule: COc1cc(Cl)cc(=O)c(O)c1OC
Qualifier Operator: =
IC50 [µM]: 20.9

Molecule: C=CCOC(=O)/C(=C\c1ccc(OC)c(OC)c1)c1ccc(OC)c(OC)c1
Qualifier Operator: >
IC50 [µM]: 200

Molecule: CN(/N=C/c1ccccn1)C1=NCCCCN1
Qualifier Operator: >
IC50 [µM]: 200
